# System: BDF1 mice, P388 leukemia ip, median survival T/C
# procedure-summary: NCI In Vivo Anticancer Drug Screen. Data for tumor model P388 Leukemia (intraperitoneal) in B6D2F1 (BDF1) mice
# particulars: endpoint: median survival time; dose: 50.0 mg/kg/injection; schedule: Q04DX003 (ip); vehicle: Klucel (hydroxypropylcellulose) (HPC)
Inconclusive results and toxic doses are left out. How the source made its calls: active means survival T/C of 150% or more; inactive means T/C below 125% in these data.
Outcomes: active, inactive

compound	class-name
O=C(/C=C/c1ccc2c(c1)OCO2)c1ccc([N+](=O)[O-])cc1	inactive
CCNCc1cc(Nc2cc(C)nc(/N=C(\N)Nc3ccc(Cl)c(Cl)c3)n2)ccc1OC	inactive
CC(=O)N(N=Nc1ccccc1)c1cccc2ccccc12	inactive
Cc1cnc2c(N)[nH]nc2n1	inactive
C#CCOC(=O)NC1CCCCC1	inactive
O=S(=O)(Nc1ccc(C(F)(F)F)cc1)c1ccc(C(F)(F)F)cc1	inactive
CN(N=O)C(=O)NC(N)=O	active
CC(=O)O[C@H]1C(=O)[C@@]2(C)[C@H]([C@H](OC(=O)c3ccccc3)[C@]3(O)C[C@H](OC(=O)[C@H](O)[C@@H](NC(=O)c4ccccc4)c4ccccc4)C(C)=C1C3(C)C)[C@]1(OC(C)=O)CO[C@@H]1C[C@@H]2O	active
CC(c1ccccc1)C1N(c2ccccc2)CCN1c1ccccc1 (configuration not stated)	inactive
COC(OC)C1(O)CC(C(C)COC2CCCCO2)OC(=O)N1 (configuration not stated)	inactive
O=Cc1ccccc1B(O)O	inactive
Cc1ccc([I+]c2ccc(C)cc2C)c(C)c1	inactive

====

# System: BDF1 mice, P388 leukemia ip, median survival T/C
# procedure-summary: NCI In Vivo Anticancer Drug Screen. Data for tumor model P388 Leukemia (intraperitoneal) in B6D2F1 (BDF1) mice
# particulars: endpoint: median survival time; dose: 100.0 mg/kg/injection; schedule: Q04DX003 (ip); vehicle: other
Toxic doses and inconclusive results are not listed. How the source made its calls: active means survival T/C of 150% or more; inactive means T/C below 125% in these data.
Outcomes: true (1) for active, false (0) for inactive

> print(dat)
                                   compound                             target.system  class.name
1  N#CC1c2ccccc2C=NN1C(=O)N(c1ccccc1)c1ccccc1 (centres undefined)  BDF1 mice, P388 leukemia ip, median survival T/C   false (0)
2  CCCCNC(C)(C)C(SS)c1cccs1 (centres undefined)  BDF1 mice, P388 leukemia ip, median survival T/C   false (0)
3   O=C(CC(O)(C(F)(F)F)C(F)(F)F)c1ccc(F)cc1  BDF1 mice, P388 leukemia ip, median survival T/C   false (0)
4                  CC(C)(C)OOC(=O)c1ccccc1O  BDF1 mice, P388 leukemia ip, median survival T/C   false (0)
5     NC(=O)Oc1cc(OC(N)=O)cc(N(CCCl)CCCl)c1  BDF1 mice, P388 leukemia ip, median survival T/C    true (1)
6              O=[N+]([O-])c1ccc2c(c1)CCCC2  BDF1 mice, P388 leukemia ip, median survival T/C   false (0)
7  CCCCCCCCCCCCNC(=O)OCCN(CCOC(=O)NCCCCCCCCCCCC)C(=O)COc1ccc(Cl)cc1  BDF1 mice, P388 leukemia ip, median survival T/C   false (0)
8          CN(N=O)P(=O)(Nc1ccccc1)Nc1ccccc1  BDF1 mice, P388 leukemia ip, median survival T/C   false (0)
9  CC1(C#N)CCc2c(ccc3ccccc23)C1=O (centres undefined)  BDF1 mice, P388 leukemia ip, median survival T/C   false (0)

====

# System: BDF1 mice, P388 leukemia ip, median survival T/C
# procedure-summary: NCI In Vivo Anticancer Drug Screen. Data for tumor model P388 Leukemia (intraperitoneal) in B6D2F1 (BDF1) mice
# particulars: endpoint: median survival time; dose: 200.0 mg/kg/injection; schedule: Q04DX003 (ip); vehicle: Klucel (hydroxypropylcellulose) (HPC); higher = longer survival
# Protocol: The antitumor activity of compounds was measured in mice bearing transplantable tumors. Survival or tumor size were measured and the results are expressed as the measurement made in the treated group (T) divided by the measurement made in the vehicle treated control group (C). The tumor model used in this assay is P388 Leukemia (intraperitoneal) in B6D2F1 (BDF1) mice
Toxic doses and inconclusive results are not listed.
quantity-measured: T/C

> print(dat)
                                    compound    value.reported
 1  OC1CC2C3C4C1C1C2C3C41 (stereo not given)  115 % of control
 2                     Cc1ccc2c(c1)C(=O)CCS2  100 % of control
 3  CCCCC(/C=C1/CCCCC1=O)CC (stereo not given)  104 % of control
 4                      CCOC(=O)C[Si](C)(C)C  101 % of control
 5                 CC(C)c1c[nH]c(=O)[nH]c1=O   90 % of control
 6  COc1cc2c(cc1OC)C(=O)C(C(=O)c1ccccc1)C2 (stereo not given)  100 % of control
 7  CCC1(c2ccccc2)NC(=O)N(C)C1=O (stereo not given)   95 % of control
 8                   Clc1ccc(N=Cc2ccccc2)cc1   95 % of control
 9          COC1=C(c2ccccc2)C(=O)CCc2ccccc21  100 % of control
10  COc1ccc(NC(=O)Oc2ccc(-c3ccccc3)cc2Br)cc1   95 % of control
11                  COc1cc(N(C)C)c(OC)cc1C=O   95 % of control
12  Cc1c(C(=O)O)nc(CC(O)C(Cl)(Cl)Cl)[nH]c1=O (stereo not given)  100 % of control
13  O=C(Nc1ccc(Nc2ccncc2)cc1)c1ccc(Nc2ccnc3ccc([N+](=O)[O-])cc23)cc1  100 % of control
14     O=C(Nc1ccccc1)Nc1ccc([N+](=O)[O-])cc1  110 % of control
15                      CC(=O)/C=N/Nc1ccccc1   95 % of control
16          O=c1[nH]cc(CCc2ccccc2)c(=O)[nH]1  100 % of control
17                     CCCCC(=O)c1ccc(Cl)cc1  100 % of control
18  CCOC(=O)c1[nH]c2c(c1CC(CC)[N+](=O)[O-])CCCC2 (stereo not given)  100 % of control
19  C/C(N=Nc1ccc([N+](=O)[O-])cc1)=N\Nc1ccccc1   87 % of control
20  O=C(C1CC2CCC1C2)C1CC2CCC1C2 (stereo not given)  108 % of control

====

# System: BDF1 mice, P388 leukemia ip, median survival T/C
# procedure-summary: NCI In Vivo Anticancer Drug Screen. Data for tumor model P388 Leukemia (intraperitoneal) in B6D2F1 (BDF1) mice
# particulars: endpoint: median survival time; dose: 3.12 mg/kg/injection; schedule: Q01DX009 (ip); vehicle: water; higher = longer survival
# Method: The antitumor activity of compounds was measured in mice bearing transplantable tumors. Survival or tumor size were measured and the results are expressed as the measurement made in the treated group (T) divided by the measurement made in the vehicle treated control group (C). The tumor model used in this assay is P388 Leukemia (intraperitoneal) in B6D2F1 (BDF1) mice
Inconclusive results and toxic doses are left out.
quantity-measured: T/C

> print(dat)
                  compound.structure.string    value.reported
1       CC(C)(Br)C(=O)c1ccc([N+](=O)[O-])o1   87 % of control
2             Cc1cc(=O)c2cc(N(C)C)ccc2[nH]1  101 % of control
3                           O=C(O)CNC1CSSC1  111 % of control
4  COc1ccc(CN(C)CCN(C)CCN(C)Cc2ccc(OC)cc2)cc1   92 % of control
5               NC(=O)/C=C/c1c[nH]c2nccnc12  113 % of control

====

# Tested on: BDF1 mice, P388 leukemia ip, median survival T/C
# procedure-summary: NCI In Vivo Anticancer Drug Screen. Data for tumor model P388 Leukemia (intraperitoneal) in B6D2F1 (BDF1) mice
# particulars: endpoint: median survival time; dose: 132.0 mg/kg/injection; schedule: Q04DX003 (ip); vehicle: saline with Tween-80
Toxic doses and inconclusive results are not listed. The calls were made as follows: active = survival T/C of 150% or more; inactive = T/C below 125% in these data.
Outcomes: active, inactive

> print(dat)
                                   molecule  class.name
1                       C=CC(=O)NCNC(=O)C=C    inactive
2  Cc1ccc(C(SCC(N)C(=O)O)(c2ccccc2)c2ccccc2)cc1 (centres undefined)      active
3   ClCCN(CCCl)c1ccc2c3c(cccc13)-c1ccccc1-2      active
4               Cc1[nH]nc(C(N)=O)c1N=NN(C)C      active
